# System: Enterobacter cloacae
# experimentNotes: Ratio of MIC for Enterobacter cloacae measured after 8 cycle passage to MIC for wild type Enterobacter cloacae
# Assay type: functional
metricName: Ratio

molecule	measValue
CCCCCCCN1C(=N)N(CCCC[C@H]2CNC(=N)N2CCC23C[C@H]4C[C@@H](C2)C[C@@H](C3)C4)C[C@@H]1CCCC	<=8
CN[C@H](CC(C)C)C(=O)N[C@H]1C(=O)N[C@@H](CC(N)=O)C(=O)N[C@H]2C(=O)N[C@H]3C(=O)N[C@H](C(=O)N[C@H](C(=O)O)c4cc(O)cc(O)c4-c4cc3ccc4O)[C@H](O)c3ccc(c(Cl)c3)Oc3cc2cc(c3O[C@@H]2O[C@H](CO)[C@@H](O)[C@H](O)[C@H]2O[C@H]2C[C@](C)(N)[C@H](O)[C@H](C)O2)Oc2ccc(cc2Cl)[C@H]1O [VANCOMYCIN]	<=128
CCCC[C@H]1CN(CCCC[C@H]2CNC(=N)N2CCc2cccc(C(F)(F)F)c2)C(=N)N1CCCCC1CCCCC1	<=8
CCCCCCCN1C(=N)N(CCCC[C@H]2CNC(=N)N2CCCCC2CCCCC2)C[C@@H]1CC1CCCCC1	<=8
CCCCCCCN1C(=N)N(CCCC[C@H]2CNC(=N)N2CCc2cccc(C(F)(F)F)c2)C[C@@H]1CC1CCCCC1	<=8
